System: Escherichia coli TOP10;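 note: peptides expressed intracellularly from a pBAD plasmid library in pooled LB shake-flask culture, induced with 0.3% L-arabinose, DNA abundance read by NGS, three biological replicates, DESeq2 with apeglm shrinkage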
Assay: shrunken log2 fold change of peptide-encoding DNA abundance (4.5 h post-induction vs induction); higher = less antimicrobial activity (less host growth inhibition)
Conditions: time post-induction: 4.5 h; library: site-saturation at positions 5, 18, 19, 20
Listed next: entries and their corresponding shrunken log2 fold change.
Format: numeric value only, no unit, no commentary.

Look over these answered cases.
RRIRIRPPRLPRPRPRPPIVPRP ... -0.68
RRIRARPPRLPRPRPRPHSAPRP ... -0.0202
RRIRSRPPRLPRPRPRPTQGPRP ... 0.36
RRIRLRPPRLPRPRPRPHRDPRP ... -0.0661

Give the measured shrunken log2 fold change for `RRIRERPPRLPRPRPRPLSVPRP` -0.642

Give the measured shrunken log2 fold change for `RRIRARPPRLPRPRPRPFLMPRP` 0.791

Give the measured shrunken log2 fold change for `RRIRSRPPRLPRPRPRPPLCPRP` 0.357

Give the measured shrunken log2 fold change for `RRIRPRPPRLPRPRPRPHKSPRP` -0.283

Data credit: the supplement of paper PMC9112550
